Assay: Percentage bioavailability (n=12; dose 0.25 mg/kg iv or 0.5 mg/kg po)
Type: ADME, organism-based, Canis lupus familiaris
Details: dog, in vivo
PROPERTY_LABEL: bioavailability
The number alone won't do; follow it with the unit.

### Prompt Quick one: bioavailability of `CCCCN1CCC(CNC(=O)c2c3n(c4ccccc24)CCCO3)CC1` ?
### Response 71%

* * *

Assay: Volume of distribution in dog (n=7; dose 0.25 mg/kg iv or 0.5 mg/kg po)
Settings: in vivo
Recorded log10(Vd) by entry
Values are log10 of Vd in L/kg.

Solved cases (3 shown):
CC1(C)CCN(S(=O)(=O)CCCN2CCC(CNC(=O)c3cccc4c3OCCO4)CC2)CC1 : 0.18
CCCS(=O)(=O)N1CCN(S(=O)(=O)CCCN2CCC(CNC(=O)c3cccc4c3OCCO4)CC2)CC1 : -0.15
CS(=O)(=O)N1CCN(S(=O)(=O)CCCN2CCC(CNC(=O)c3cccc4c3OCCO4)CC2)CC1 : -0.52

### Prompt Quick one: log10(Vd) of `CCCC1CCN(S(=O)(=O)CCCN2CCC(CNC(=O)c3cccc4c3OCCO4)CC2)CC1` ?
### Response 0.15

### Prompt Quick one: log10(Vd) of `CC(=O)N1CCN(S(=O)(=O)CCCN2CCC(CNC(=O)c3cccc4c3OCCO4)CC2)CC1` ?
### Response -0.15

### Prompt Quick one: log10(Vd) of `CCN1CCN(S(=O)(=O)CCCN2CCC(CNC(=O)c3cccc4c3OCCO4)CC2)CC1` ?
### Response 0.56

### Prompt Quick one: log10(Vd) of `O=C(NCC1CCN(CCCS(=O)(=O)N2CCN(c3ncccn3)CC2)CC1)c1cccc2c1OCCO2` ?
### Response -0.52

### Prompt Quick one: log10(Vd) of `CC(C)N1CCN(S(=O)(=O)CCCN2CCC(CNC(=O)c3cccc4c3OCCO4)CC2)CC1` ?
### Response 0.56
